System: Micrococcus luteus
Test: Antimicrobial activity against Micrococcus luteus ATCC 10240 after 24 hrs by Kirby-Bauer agar diffusion assay
Format: functional

{"molecule": "C=C(C)C(C)N(O)c1ccccn1 (racemic)", "diameter of the inhibition zone (DIZ)": "31 mm"}
{"molecule": "O=Nc1ccc(Br)cn1", "diameter of the inhibition zone (DIZ)": "<=14 mm"}
{"molecule": "Clc1ccc(N2OC3C=CC2C3)nc1 (racemic)", "diameter of the inhibition zone (DIZ)": "<=14 mm"}
{"molecule": "O=Nc1ncc(Cl)cc1Cl", "diameter of the inhibition zone (DIZ)": "<=14 mm"}
{"molecule": "ON(Cc1ccccc1)c1ccccn1", "diameter of the inhibition zone (DIZ)": "24 mm"}
{"molecule": "Cc1cccc(N(O)[C@@H]2CCC=C[C@H]2OC(C)(C)C)n1 (racemic)", "diameter of the inhibition zone (DIZ)": ">14 mm"}
{"molecule": "ON(Cc1ccccc1)c1cccnc1", "diameter of the inhibition zone (DIZ)": "15 mm"}
{"molecule": "CO[C@@H]1C=CC[C@H]1N(O)c1ccc(Br)cn1 (racemic)", "diameter of the inhibition zone (DIZ)": ">14 mm"}
{"molecule": "CC1=CCCCC1N(O)c1cc(C)on1 (racemic)", "diameter of the inhibition zone (DIZ)": ">14 mm"}
{"molecule": "C=C(C)C(CC/C(C)=C/CO)N(O)c1cccc(CC)n1 (racemic)", "diameter of the inhibition zone (DIZ)": "31 mm"}
{"molecule": "O=Nc1ncc(C(F)(F)F)cc1Cl", "diameter of the inhibition zone (DIZ)": "<=14 mm"}
{"molecule": "Cc1cccc(N2OC3C=CC2CC3)n1 (racemic)", "diameter of the inhibition zone (DIZ)": "<=14 mm"}
{"molecule": "C=CCN(OCc1ccc(OC)cc1)c1ccccn1", "diameter of the inhibition zone (DIZ)": "<=14 mm"}
{"molecule": "CN(O)c1ccccn1", "diameter of the inhibition zone (DIZ)": "18 mm"}
{"molecule": "ON(Cc1ccc(OC(F)(F)F)cc1)c1ccccn1", "diameter of the inhibition zone (DIZ)": "17 mm"}
{"molecule": "Cc1cccc(N(O)[C@@H]2C=C[C@@H](OC(C)(C)C)CC2)n1 (racemic)", "diameter of the inhibition zone (DIZ)": ">14 mm"}
{"molecule": "Cc1cc(N=O)no1", "diameter of the inhibition zone (DIZ)": "<=14 mm"}
{"molecule": "Brc1ccc(N2OC3C=CC2CC3)nc1 (racemic)", "diameter of the inhibition zone (DIZ)": "<=14 mm"}
{"molecule": "ON(Cc1cccc(Oc2ccccc2)c1)c1ccccn1", "diameter of the inhibition zone (DIZ)": "12 mm"}
{"molecule": "Cc1cc(N(O)[C@@H]2C=CC(OC(C)(C)C)C2)no1 (mixture of isomers)", "diameter of the inhibition zone (DIZ)": ">14 mm"}
{"molecule": "Cc1cccc(N=O)n1", "diameter of the inhibition zone (DIZ)": "<=14 mm"}
{"molecule": "Cc1ccnc(N=O)c1", "diameter of the inhibition zone (DIZ)": "<=14 mm"}
{"molecule": "C=C(C)C(CC/C(C)=C/CO)N(O)c1ccccn1 (racemic)", "diameter of the inhibition zone (DIZ)": "35 mm"}
{"molecule": "CO[C@@H]1C=CC[C@H]1N(O)C(=O)OC(C)(C)C (racemic)", "diameter of the inhibition zone (DIZ)": "<=14 mm"}
{"molecule": "Cc1cccc(N(O)[C@@H]2C=C[C@@H](OC(C)C)CC2)n1 (racemic)", "diameter of the inhibition zone (DIZ)": ">14 mm"}
{"molecule": "CC(C)O[C@@H]1C=C[C@@H](N(O)c2ccc(Br)cn2)CC1 (relative stereo)", "diameter of the inhibition zone (DIZ)": ">14 mm"}

Source of measurements: ChEMBL document CHEMBL1914331
